biological target: KRAS G12C (Homo sapiens, UniProt P01116, G12C); experiment: cellular thermal stability assay
Sequence (P01116 2-186 G12C): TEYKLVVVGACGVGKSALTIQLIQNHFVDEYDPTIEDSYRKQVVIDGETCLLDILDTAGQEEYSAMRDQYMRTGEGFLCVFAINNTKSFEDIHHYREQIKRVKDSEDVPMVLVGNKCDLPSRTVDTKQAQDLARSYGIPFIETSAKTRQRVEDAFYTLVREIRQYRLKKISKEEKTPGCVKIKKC
Measured metric: pEC50
pEC50 (log units): -log10 of the concentration in mol/L.

**Query** Could you tell me which pEC50 is on file for COc1cc(/C=C2/C(C)=C(CC(=O)NCc3ccco3)c3cc(F)ccc32)cc(OC)c1O [ADT-007] ?
**Result** 8.07
